pIC50 listing for selected molecules.
# subject-of-test: Coagulation factor XIII A chain (Homo sapiens, UniProt P00488)
# Sequence (P00488 whole entry): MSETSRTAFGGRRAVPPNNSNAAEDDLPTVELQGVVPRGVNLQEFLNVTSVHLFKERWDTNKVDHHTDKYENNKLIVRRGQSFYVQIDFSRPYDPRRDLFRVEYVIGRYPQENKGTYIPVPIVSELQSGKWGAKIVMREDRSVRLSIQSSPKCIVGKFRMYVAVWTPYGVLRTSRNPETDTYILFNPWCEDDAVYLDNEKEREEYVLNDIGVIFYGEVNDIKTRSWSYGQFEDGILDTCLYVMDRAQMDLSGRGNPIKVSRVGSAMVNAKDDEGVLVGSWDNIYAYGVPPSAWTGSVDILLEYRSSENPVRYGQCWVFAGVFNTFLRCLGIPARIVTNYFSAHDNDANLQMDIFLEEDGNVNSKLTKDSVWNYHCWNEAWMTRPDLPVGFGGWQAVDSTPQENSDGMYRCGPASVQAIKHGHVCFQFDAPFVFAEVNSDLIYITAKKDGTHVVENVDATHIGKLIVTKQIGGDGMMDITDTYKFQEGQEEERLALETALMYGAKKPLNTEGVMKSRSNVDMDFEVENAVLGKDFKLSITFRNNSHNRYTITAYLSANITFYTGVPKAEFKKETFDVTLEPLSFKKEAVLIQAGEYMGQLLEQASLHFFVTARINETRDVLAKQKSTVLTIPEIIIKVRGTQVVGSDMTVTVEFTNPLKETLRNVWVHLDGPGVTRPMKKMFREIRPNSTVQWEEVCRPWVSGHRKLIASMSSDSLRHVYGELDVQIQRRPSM
For clarity, pIC50 is expressed as the negative log10 of concentration in mol/L.

given-smiles | pIC50
O=[N+]([O-])c1ccccc1S(=O)(=O)NCCCCCCNc1ncccc1[N+](=O)[O-] | 3.77

Next, consider the following molecule.
Ask: API: value(readout=pIC50, system=Coagulation factor XIII A chain (Homo sapiens, UniProt P00488)) for record O=[N+]([O-])c1ccc(S(=O)(=O)NCCCCCCNc2n[s+]c3[n-]ccn23)cc1
Result: 6.04
